# targetDesc: Lysine-specific demethylase 4A (Homo sapiens) (UniProt O75164)
# Sequence (O75164 whole entry, looked up, the tested form may be a part): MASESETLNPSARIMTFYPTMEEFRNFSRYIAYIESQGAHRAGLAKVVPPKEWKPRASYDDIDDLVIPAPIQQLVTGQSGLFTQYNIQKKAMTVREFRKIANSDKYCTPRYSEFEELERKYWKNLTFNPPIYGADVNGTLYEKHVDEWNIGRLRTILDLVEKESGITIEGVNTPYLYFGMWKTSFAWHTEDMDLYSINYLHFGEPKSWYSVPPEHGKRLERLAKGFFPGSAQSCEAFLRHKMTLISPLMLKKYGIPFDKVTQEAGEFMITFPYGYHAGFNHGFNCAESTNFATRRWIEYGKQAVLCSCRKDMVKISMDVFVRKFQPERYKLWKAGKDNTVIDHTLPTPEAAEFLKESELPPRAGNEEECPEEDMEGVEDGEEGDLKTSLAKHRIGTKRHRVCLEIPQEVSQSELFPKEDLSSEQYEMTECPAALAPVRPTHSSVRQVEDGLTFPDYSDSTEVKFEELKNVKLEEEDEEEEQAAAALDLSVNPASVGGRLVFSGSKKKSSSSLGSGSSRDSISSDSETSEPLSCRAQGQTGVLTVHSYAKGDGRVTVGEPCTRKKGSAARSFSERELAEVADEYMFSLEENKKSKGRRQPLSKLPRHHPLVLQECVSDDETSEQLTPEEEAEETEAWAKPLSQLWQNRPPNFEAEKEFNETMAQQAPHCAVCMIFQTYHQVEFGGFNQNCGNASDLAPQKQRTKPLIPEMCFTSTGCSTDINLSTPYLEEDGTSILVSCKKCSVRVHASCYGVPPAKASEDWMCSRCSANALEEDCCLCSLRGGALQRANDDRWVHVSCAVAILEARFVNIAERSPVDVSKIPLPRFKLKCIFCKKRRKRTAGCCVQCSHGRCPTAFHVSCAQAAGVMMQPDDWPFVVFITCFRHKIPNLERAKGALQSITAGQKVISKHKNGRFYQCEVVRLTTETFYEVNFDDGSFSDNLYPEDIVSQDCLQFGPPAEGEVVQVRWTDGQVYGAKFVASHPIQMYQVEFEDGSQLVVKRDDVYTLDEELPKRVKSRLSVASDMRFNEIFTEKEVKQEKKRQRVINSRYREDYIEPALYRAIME
# assayNotes: qHTS Assay for Inhibitors of JMJD2A-Tudor Domain; also: nearly all actives have a fitted effect of over 50% in size
# testContext: AlphaScreen JMJD2A-Tudor / H3K4me3 peptide binding; series mostly up to 114 µM
Screen size: about 390,000 compounds; about 17,000 (4.4%) were called active. Another 8% or so got no clear call; they are omitted. Calls follow the shape of the dose curve; as a rule, active = well fitted inhibition curve with a large enough effect; inconclusive = small, poorly fitted or top-dose-only effect; inactive = no such curve, though single readings can be large or run the other way. This excerpt belongs to a sample that is enriched for actives.
Labels: true (1) = active, false (0) = inactive

molecule	category
CCOC(=O)c1cc(-c2ccc(OC)c(S(=O)(=O)Nc3ccc(OC)cc3OC)c2)on1	false (0)
Cc1nn(C)cc1C(=O)NNC(=S)Nc1ccc(Cl)cc1	false (0)
COc1ccc(Nc2nc(-c3cccnc3)nc3ccccc23)cn1	true (1)
CC1=C(C(=O)Nc2ccccc2Cl)C(c2cccs2)n2ncnc2N1 (stereo not drawn)	false (0)
COc1ccc(CCNC(=O)c2cc3cccc4c3n2CC(C)S4)c(OC)c1OC (stereo not drawn)	false (0)
COc1ccccc1CNC(=O)C(=O)NCC(c1ccco1)S(=O)(=O)c1ccc(F)cc1 (stereo not drawn)	false (0)
COc1ccc(C2=NC3(CCCCC3)N(CC(=O)Nc3ccc(C(C)C)cc3)C2=O)cc1	false (0)
COc1ccc(CCNC(=O)c2c3c(nc4ccccc24)C(=O)N(C2CCCCC2)C3)cc1OC	false (0)
C#CCOCCOCCOCCNc1nc(N2CCN(C(=O)[C@H](Cc3ccc(O)cc3)n3cc(C(N)CC(C)C)nn3)CC2)nc(N2CCN(C(=O)[C@H](CCC(=O)O)n3cc(C(N)[C@H](C)CC)nn3)CC2)n1 (stereo partly drawn)	true (1)
O=C(Nc1ccc(F)cc1F)c1ccc2c(=O)n3c(nc2c1)CCCCC3	false (0)
C#CCOCCOCCOCCNc1nc(N2CCN(C(=O)[C@H](CCCCN)n3cc([C@@H](N)C(C)CC)nn3)CC2)nc(N2CCN(C(=O)[C@H](Cc3ccc(O)cc3)n3cc([C@@H](N)C(C)CC)nn3)CC2)n1 (stereo partly drawn)	true (1)
CC[C@H](C)[C@@H](C(=O)N1CCNCC1)n1cc([C@@H](N)Cc2ccc(O)cc2)nn1	false (0)
C#CCOCCOCCOCCNc1nc(N2CCN(C(=O)C(Cc3ccc(O)cc3)n3cc(C(N)CC(C)C)nn3)CC2)nc(N2CCN(C(=O)C(Cc3ccc(O)cc3)n3cc(C(N)C(C)CC)nn3)CC2)n1 (stereo not drawn)	true (1)
CCOc1cccc(/C=N/N2C(=O)CSC2=S)c1O	true (1)
COc1ccc(C)cc1-n1c(-c2ccc(C)cc2)cc2c1CC(C)(C)CC2=O	false (0)
CC(C)CCNC(=O)CSc1nc2ccccc2nc1Cc1ccc(Cl)cc1	false (0)
Cc1ccccc1CNC(=O)CSc1nnc(C)c2c(C)n(-c3ccccc3)nc12	false (0)
CC(C)CCNc1nc(N2CCCC2)c2c(c1C#N)CCN(C)C2	true (1)
Cc1cccc(NC(=O)N2CCN(C)c3ncccc32)c1C	false (0)
Cn1c(=O)c2sccc2n2c(CCC(=O)NCc3ccccc3Cl)nnc12	false (0)
CC(C)Cc1nc(N2CCOCC2)c(C#N)c2c1CCC2	false (0)
Cc1ccc(-n2c(C)cc(C(=O)CN3C(=O)C(=O)N(C4CCCC4)C3=O)c2C)cc1	true (1)
COc1cc(NC(=O)c2noc3c2CSc2ccccc2-3)cc(OC)c1OC	false (0)
Cc1cc(N2CCN(c3cccc(C(F)(F)F)c3)CC2)n2nc(-c3ccccc3)nc2n1	false (0)
CCN(CC)S(=O)(=O)c1ccc2c(c1)c(=O)c(C(=O)N1CCN(c3cccc(Cl)c3)CC1)cn2C	false (0)
O=C(c1cc2ccccc2s1)N1CCN(c2ccccn2)CC1	false (0)
O=C(Nc1ccc2nc(SCCOc3ccccc3)sc2c1)c1ccco1	false (0)
Cc1cc(C(=O)COC(=O)C2CC2)c(C)n1-c1ccc(F)cc1	false (0)
O=C1CSC(=S)N1c1ccc(O)cc1	false (0)
Cc1ccc(-c2cc(C(=O)Oc3ccccc3Cl)no2)cc1C	false (0)
COc1ccc(CCNC(=O)CCCn2c(=O)c3ccccc3n(Cc3ccc(F)cc3Cl)c2=O)cc1OC	false (0)
CCc1nn(CC(=O)N2CCN(c3ccc(Cl)cc3)CC2)c(=O)c2cc3occc3n12	false (0)
Cc1ccc(C)c(N2CCN(C(=O)Cn3ncc4c(=O)oc5ccc(C)cc5c43)CC2)c1	false (0)
Nc1ccccc1SC(C[N+](=O)[O-])c1ccccc1 (stereo not drawn)	true (1)
C#CCOCCOCCOCCNc1nc(N2CCOCC2)nc(N2CCN(C(=O)[C@H](Cc3ccc(O)cc3)n3cc(CCO)nn3)CC2)n1	false (0)
COc1ccc(CNC(=O)c2ccc3c(O)c(S(=O)(=O)c4ccccc4)c(=O)[nH]c3c2)cc1	false (0)
COc1ccc(NC(=O)c2sc3nc(-c4cc5cccc(OC)c5oc4=O)[nH]c(=O)c3c2C)cc1	false (0)
Cc1cc(-c2ccc(C)c(S(=O)(=O)N3c4ccccc4CC3C)c2)on1 (stereo not drawn)	false (0)

Provenance of the data: PubChem BioAssay AID504339
